SYSTEM_TESTED: Angiotensin-converting enzyme (Rattus norvegicus) (UniProt P47820)
Sequence (whole entry): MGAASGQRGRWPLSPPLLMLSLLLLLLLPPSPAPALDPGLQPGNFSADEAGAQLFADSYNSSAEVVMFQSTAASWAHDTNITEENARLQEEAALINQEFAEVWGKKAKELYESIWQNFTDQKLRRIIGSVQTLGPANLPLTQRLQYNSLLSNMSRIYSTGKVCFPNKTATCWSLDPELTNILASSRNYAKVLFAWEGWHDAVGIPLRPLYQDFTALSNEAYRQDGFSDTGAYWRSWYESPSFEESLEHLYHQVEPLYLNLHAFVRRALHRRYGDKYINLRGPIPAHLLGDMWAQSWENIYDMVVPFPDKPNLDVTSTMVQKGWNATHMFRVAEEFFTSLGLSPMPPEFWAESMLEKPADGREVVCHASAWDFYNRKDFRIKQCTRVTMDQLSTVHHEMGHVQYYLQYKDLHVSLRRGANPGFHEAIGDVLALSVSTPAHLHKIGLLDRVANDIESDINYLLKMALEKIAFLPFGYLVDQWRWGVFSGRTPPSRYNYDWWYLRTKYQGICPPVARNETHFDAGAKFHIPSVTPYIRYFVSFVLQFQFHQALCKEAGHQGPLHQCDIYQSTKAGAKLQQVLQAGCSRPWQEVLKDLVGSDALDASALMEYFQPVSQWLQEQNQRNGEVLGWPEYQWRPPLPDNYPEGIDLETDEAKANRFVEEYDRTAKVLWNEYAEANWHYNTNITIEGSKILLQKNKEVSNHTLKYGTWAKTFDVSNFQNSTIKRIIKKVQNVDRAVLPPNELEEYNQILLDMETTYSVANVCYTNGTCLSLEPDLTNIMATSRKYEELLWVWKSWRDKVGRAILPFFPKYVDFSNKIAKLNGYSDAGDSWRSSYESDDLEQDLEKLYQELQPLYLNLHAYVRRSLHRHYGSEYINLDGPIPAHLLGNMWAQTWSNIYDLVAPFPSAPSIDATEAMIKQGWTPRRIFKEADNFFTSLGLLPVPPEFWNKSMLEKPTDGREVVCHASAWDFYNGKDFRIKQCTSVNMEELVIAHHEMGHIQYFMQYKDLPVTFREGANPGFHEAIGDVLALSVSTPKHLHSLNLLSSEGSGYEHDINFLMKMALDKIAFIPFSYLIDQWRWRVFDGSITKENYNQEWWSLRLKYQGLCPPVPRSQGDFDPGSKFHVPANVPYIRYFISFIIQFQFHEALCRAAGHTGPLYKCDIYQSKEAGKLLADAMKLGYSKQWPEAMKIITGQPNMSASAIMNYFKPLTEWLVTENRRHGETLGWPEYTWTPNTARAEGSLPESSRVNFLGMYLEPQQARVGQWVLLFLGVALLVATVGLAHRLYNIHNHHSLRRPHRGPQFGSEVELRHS
ASSAY_EXPLANATION: In vivo dose required to produce 50% inhibition against angiotensin I in normotensive rat after intravenous administration
Format: functional, organism-based
Documented ED50 across a set of molecules
Note: unit µmol/kg is implicit; provide only the numeric part.

NCCCC[C@H](OP(=O)(O)CCCCc1ccccc1)C(=O)N1C[C@@H](Cc2ccccc2)C[C@H]1C(=O)O    0.026
NCCCC[C@H](OP(=O)(O)CCCCc1ccccc1)C(=O)N1CC2(C[C@H]1C(=O)O)SCCS2    0.018
COc1ccc(N(CC(=O)O)C(=O)[C@H](CCCCN)OP(=O)(O)CCCCc2ccccc2)cc1OC    0.04
NCCCC[C@H](OP(=O)(O)CCCCc1ccccc1)C(=O)N(CC(=O)O)C1CCCCC1    0.106
NCCCC[C@H](OP(=O)(O)CCCCc1ccccc1)C(=O)N1CCS[C@H]1C(=O)O    0.163
NCCCC[C@H](OP(=O)(O)CCCCc1ccccc1)C(=O)N1C[C@@H](Sc2ccccc2)C[C@H]1C(=O)O    0.047

Give its ED50 value. Item: `NCCCC[C@H](OP(=O)(O)CCCCc1ccccc1)C(=O)N(CC(=O)O)c1ccc2c(c1)OCO2`
0.1

Which ED50 is listed for `NCCCC[C@H](OP(=O)(O)CCCCc1ccccc1)C(=O)N1C[C@@H](O)C[C@H]1C(=O)O` ?
0.033
